- test.target: Mm-MRGPRX1 WT (Macaca mulatta)
- Construct: host or cells: COS-7
- Sequence (A0A5F7ZSN8 1-322): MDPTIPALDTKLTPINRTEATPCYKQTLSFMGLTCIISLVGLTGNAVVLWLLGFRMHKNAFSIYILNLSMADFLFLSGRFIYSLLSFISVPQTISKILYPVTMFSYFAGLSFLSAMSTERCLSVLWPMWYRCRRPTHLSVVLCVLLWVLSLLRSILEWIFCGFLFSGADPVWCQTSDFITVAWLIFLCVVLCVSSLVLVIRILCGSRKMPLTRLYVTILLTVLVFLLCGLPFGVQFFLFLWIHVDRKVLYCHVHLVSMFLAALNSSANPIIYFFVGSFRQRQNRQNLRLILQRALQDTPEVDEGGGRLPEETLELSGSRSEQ
- experiment.description: Intracellular Ca2+ mobilization in COS-7 cells, Gαq16-fused receptor, intact Mm-MRGPRX1
- Format: cell-based
- condition.label: BAM8–22; COS-7, Gαq16-fused, Ca2+ mobilization; three replicate analyses
No end group written: not given here.
property.label: EC50 (nM)
Numeric answer only, unit nM assumed.

Tell me EC50 reported for VGRPEWWMDYQKRYG [BAM8–22, bovine adrenal medulla peptide 8–22] 2570

----------
- test.target: (S1.43A)-MRGPRX1 (Homo sapiens, UniProt Q96LB2, S38A)
- Construct: host or cells: COS-7
- experiment.description: Intracellular Ca2+ mobilization in COS-7 cells, Gαq16-fused receptor, (S1.43A)-MRGPRX1
- Type: cell-based
- condition.label: BAM8–22; COS-7, Gαq16-fused, Ca2+ mobilization; three replicate analyses
No end group written: not given here.
property.label: pEC50
Here pEC50 is given on a logarithmic scale as minus log10 of the concentration in mol/L.

Give the reported value of pEC50 for this record: VGRPEWWMDYQKRYG [BAM8–22, bovine adrenal medulla peptide 8–22] 6.70
